Cited source for all entries: patent US4649137A

- Tested on: mouse
- test: Determination of the minimum toxic dose
- Format: in vivo, mouse (male)
- conditions: p.o.; maximum dose 300 mg/kg; symptoms recorded for 24 hours
Readings of Minimum toxic dose in the mouse for the listed molecules
Only the number, expressed in mg/kg, is required.

A selection of reference data follows.
// lookup Minimum toxic dose in the mouse for COc1ccc2c(c1)N(C)C(CNC(=O)c1ccsc1)CN=C2c1ccsc1 (stereo not drawn)
200

Minimum toxic dose in the mouse for CN1c2ccccc2C(c2ccsc2)=NCC1CNC(=O)c1ccccc1 (stereo not drawn) ?
300

Any idea what its Minimum toxic dose in the mouse is? The molecule is CN1c2cc3c(cc2C(c2ccsc2)=NCC1CNC(=O)c1cccs1)OCO3 (stereo not drawn)
100

Entry CN1c2ccccc2C(c2ccsc2)=NCC1CNC(=O)c1ccc(C(F)(F)F)cc1 (stereo not drawn) has what Minimum toxic dose in the mouse?
300

Reported Minimum toxic dose in the mouse for COc1ccc2c(c1)N(C)C(CNC(=O)c1ccccc1)CN=C2c1ccsc1 (stereo not drawn) : what is it?
300

Continue with the molecule presented below.
What measured Minimum toxic dose in the mouse goes with CN1c2ccccc2C(c2ccsc2)=NCC1CNC(=O)c1ccoc1 (stereo not drawn) ?
200

----------
Entries and their Minimum toxic dose in the mouse values follow.
- Tested on: mouse
- test: Determination of the minimum toxic dose
- Assay type: in vivo, mouse (male)
- conditions: p.o.; maximum dose 300 mg/kg; symptoms recorded for 24 hours

In the examples that follow, each entry is paired with its recorded Minimum toxic dose in the mouse.
Notebook: pull reported Minimum toxic dose in the mouse for mouse, entry CN1c2ccccc2C(c2ccsc2)=NCC1CNC(=O)c1ccc(C#N)cc1 (stereo not drawn)
> 300 mg/kg

Notebook: pull reported Minimum toxic dose in the mouse for mouse, entry CN1c2ccccc2C(c2ccc(Cl)s2)=NCC1CNC(=O)c1ccc(C#N)cc1 (stereo not drawn)
> 300 mg/kg

Next:
Query the reported Minimum toxic dose in the mouse for mouse; item: COc1ccc2c(c1)N(C)C(CNC(=O)c1ccc(C(F)(F)F)cc1)CN=C2c1ccsc1 (stereo not drawn)
> 300 mg/kg
